The reported numbers originate from PubChem BioAssay (NCI).

Tested on: OVCAR-4 ovarian
test.protocol: NCI tumour cell line growth inhibition, 48 h
result.type: GI50

FC(F)(F)c1cccc(-c2nn3ncccc3c2-c2ccnc(Nc3ccc4c(c3)OCCO4)n2)c1 = 10.3 µM
COc1cc(C(=O)Nc2cc(O)c(CC=C(C)C)c(O)c2)cc2c1O[C@]1(C)CC[C@@H](O)C(C)(C)[C@H]1C2 = 10.1 µM
O=Nc1c(-c2c(O)[nH]c3ncccc23)[nH]c2ccccc12 = 9.1 µM
Fc1ccc(/C=N/n2c(-c3ccc(F)c(Cl)c3)n[nH]c2=S)cc1 = 19.9 µM
COc1cc2ncc3c(nc4sccn43)c2cc1OC = 32 µM

Task: Observed GI50 on OVCAR-4 ovarian for Nc1n[nH]c2ccc([C@@H]3Nc4cc5c(cc4[C@H]4C6CCC(C6)[C@@H]34)C(=O)NC5)cc12 (stereo not given in full) , please.
Output: 1.37 µM

Task: Can you handle CCOC(=O)c1cc2c(cc1Cl)SC(=Nc1ccccc1)N(S(=O)(=O)c1ccc(Br)s1)S2(=O)=O next?
Output: 23.4 µM

Task: Can you handle COc1cc(O)c2c(=O)c(OC)c(-c3ccc(OC)c(OC)c3)oc2c1 next?
Output: 61.8 µM

Task: Can you handle COc1cccc(Oc2ccccc2NC(=O)CNC(=O)c2cccc3ccccc23)c1 next?
Output: 0.77 µM

Task: Can you handle COc1ccc(Nc2ccnc(N3CCN(c4ccnc5cc(Cl)ccc45)CC3)n2)cc1 next?
Output: 1.34 µM

====

Here, each record is paired with measured TGI data.
System: UACC-257 melanoma
test.protocol: NCI tumour cell line growth inhibition, 48 h
Field: numeric (µM). Do not append units.

CCN(CC)C1Oc2cc3c(cc2C(c2cccc(OC)c2OC)C1C)OCO3 (stereo not given) = 24.9

Task: Requested read-out: TGI. Entry: Nc1ncnc2c1ncn2[C@@H]1O[C@H](COC(c2ccccc2)(c2ccccc2)c2ccccc2)[C@@H](OC(=S)Oc2ccccc2)[C@@H]1F
Output: 28.6

Task: Can you handle C[C@@H]1Cc2cc(O)ccc2[C@H]2CC[C@]3(C)/C(=C/COCCN(C)C)CC[C@H]3[C@H]12 (tested in a mixture with another compound) next?
Output: 2.01

Task: Can you handle N/C(=N\OC(=O)c1ccccc1)C(Cc1ccccc1)C(=O)NOC(=O)c1ccccc1 (stereo not given) next?
Output: 18.5

====

Test system: NCI/ADR-RES ovarian
test.protocol: NCI tumour cell line growth inhibition, 48 h; in the data active means GI50 below about 0.43 µM; inactive means the rest
Permitted responses: 1.0 = active, 0.0 = inactive

CN1CCN(CCCCCN=c2cc3c(=O)n(CCCCCN4CCN(C)CC4)c(=O)c4c(NCCCCCN5CCN(C)CC5)cc5c(O)n(CCCCCN6CCN(C)CC6)c(=O)c2c5c4-3)CC1 = 0.0
CSc1ccc(C2=NN(C(C)=O)C(c3ccc(-c4ccc(Cl)cc4)o3)C2)cc1 (configuration not stated) = 0.0
Oc1cccc2c1NCCC2 = 0.0
FC(F)(F)c1cccc(-c2nn3ncccc3c2-c2ccnc(Nc3ccc4c(c3)OCCO4)n2)c1 = 0.0
COc1cc(-c2nn(-c3cccc(NC(=O)CCN4CCN(Cc5ccccc5)CC4)c3)cc2-c2ccncc2)ccc1Cl = 0.0
COc1cc(/C=C/c2ccc3c(Br)cc(Br)c(O)c3n2)ccc1O = 1.0

Task: What is the recorded call for this compound in the test? O=C(NNS(=O)(=O)c1ccc(Cl)cc1Cl)c1cccnc1Nc1ccc(Cl)cc1
Output: 0.0

Task: Can you handle COc1cccc(Oc2ccccc2NC(=O)CNC(=O)c2cccc3ccccc23)c1 next?
Output: 1.0
